Cited source for all entries: patent US8937065B2

Test system: hERG (Homo sapiens)
Sequence (Q12809 whole entry): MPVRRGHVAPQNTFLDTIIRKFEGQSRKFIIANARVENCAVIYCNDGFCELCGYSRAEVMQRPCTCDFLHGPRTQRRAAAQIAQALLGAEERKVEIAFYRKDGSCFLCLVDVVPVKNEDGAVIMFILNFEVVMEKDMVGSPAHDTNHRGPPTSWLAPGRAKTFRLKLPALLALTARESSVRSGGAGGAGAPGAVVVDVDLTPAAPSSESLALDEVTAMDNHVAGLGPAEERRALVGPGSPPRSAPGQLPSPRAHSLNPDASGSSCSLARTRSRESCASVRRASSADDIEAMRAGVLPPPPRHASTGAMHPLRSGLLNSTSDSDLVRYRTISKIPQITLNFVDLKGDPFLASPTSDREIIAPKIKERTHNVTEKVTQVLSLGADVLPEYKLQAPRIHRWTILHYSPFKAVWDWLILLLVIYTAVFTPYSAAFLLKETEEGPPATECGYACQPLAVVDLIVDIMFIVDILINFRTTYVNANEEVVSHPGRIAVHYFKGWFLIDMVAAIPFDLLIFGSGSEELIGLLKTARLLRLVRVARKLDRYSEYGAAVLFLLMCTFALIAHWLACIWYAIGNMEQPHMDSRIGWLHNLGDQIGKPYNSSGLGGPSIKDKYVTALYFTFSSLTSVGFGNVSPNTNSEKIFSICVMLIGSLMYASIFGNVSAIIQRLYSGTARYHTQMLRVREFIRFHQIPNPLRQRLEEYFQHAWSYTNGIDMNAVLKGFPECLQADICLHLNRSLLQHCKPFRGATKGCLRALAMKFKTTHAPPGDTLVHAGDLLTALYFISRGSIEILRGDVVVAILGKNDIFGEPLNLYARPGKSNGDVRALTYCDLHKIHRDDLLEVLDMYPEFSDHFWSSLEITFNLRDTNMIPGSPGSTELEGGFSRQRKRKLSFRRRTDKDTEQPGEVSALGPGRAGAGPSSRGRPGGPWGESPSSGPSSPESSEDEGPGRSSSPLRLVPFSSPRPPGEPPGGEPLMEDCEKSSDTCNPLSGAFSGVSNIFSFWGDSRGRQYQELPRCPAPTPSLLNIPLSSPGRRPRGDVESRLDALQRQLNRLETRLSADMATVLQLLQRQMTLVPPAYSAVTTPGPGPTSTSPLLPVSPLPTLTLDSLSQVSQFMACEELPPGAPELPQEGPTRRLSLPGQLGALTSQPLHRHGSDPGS
Experiment notes: hERG IC50
pIC50: −log10 of the molar value.
Measure name: pIC50

> print(dat)
                            compound.string  data.value
1  O=C(CN1CCOCC1)Nc1cccc(-c2nc(-c3c[nH]c(C(=O)N4CCCC4)c3)cs2)c1      < 5.00

* * *

Experiment notes: Aqueous (kinetic) solubility test in 100 mM phosphate buffer pH 7.4
Test conditions: pH 7.4, aqueous buffer, thermodynamic from solid, Solubility (μM) Mean, kinetic solubility, 100 mM phosphate buffer (pH 7.4), test concentration 100 μM, n=2, LC-UV
Measure name: solubility at 1 h

> print(dat)
                                   molecule       measure.name  data.value
1  CC(C)NCC(O)COc1cccc2ccccc12 (stereo not shown) [Propranolol, reference compound]  solubility at 1 h    > 100 µM
